Values from ChEMBL document CHEMBL1141124

- TESTED SYSTEM: Type-1 angiotensin II receptor B (Rattus norvegicus, UniProt P29089)
- Sequence (P29089 whole entry): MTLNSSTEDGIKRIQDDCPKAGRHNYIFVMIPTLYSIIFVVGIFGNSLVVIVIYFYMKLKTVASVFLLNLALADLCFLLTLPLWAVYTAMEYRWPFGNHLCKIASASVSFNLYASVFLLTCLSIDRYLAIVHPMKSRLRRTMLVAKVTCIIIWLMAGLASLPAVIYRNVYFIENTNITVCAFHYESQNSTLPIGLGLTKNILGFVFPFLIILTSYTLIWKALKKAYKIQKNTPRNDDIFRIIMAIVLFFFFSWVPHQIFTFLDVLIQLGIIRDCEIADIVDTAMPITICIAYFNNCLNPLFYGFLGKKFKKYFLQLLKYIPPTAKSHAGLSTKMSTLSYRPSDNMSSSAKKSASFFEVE
- EXPERIMENT NOTES: Binding affinity for angiotensin II receptor, type 1 in rat liver membrane using [125I]-Ang II as radioligand, in pH 7.4 Tris-HCl buffer for 2 hr at 25 degree C
- Assay type: cell membranes
Starred links: 1 amine or outer side, 2 acyl side, 3 side chain; linkers in the order of their positions; H or OH if unused. Non-standard residues stand in square brackets, D forms with d. Residues, ends and D or L forms follow the SMILES beside them. X1 = O=C(c1cc(Cc2ccc(O)cc2)cc(N[*:1])c1)[*:2]
REPORTED ENDPOINT: Ki (nM)
Number in nM, nothing else.

**Query** I would be grateful if you could share the reported Ki for CC(C)[C@H](NC(=O)[C@H](CCCN=C(N)N)NC(=O)[C@@H](N)CC(=O)O)C(=O)Nc1cc(Cc2ccc(O)cc2)cc(C(=O)N[C@@H](Cc2c[nH]cn2)C(=O)N2CCC[C@H]2C(=O)N[C@@H](Cc2ccccc2)C(=O)O)c1 (H-DRV[X1]HPF-OH) .
**Result** 30.3

* * *

Starred links: 1 amine or outer side, 2 acyl side, 3 side chain; linkers in the order of their positions; H or OH if unused. Non-standard residues stand in square brackets, D forms with d. Residues, ends and D or L forms follow the SMILES beside them. X2 = O=C(c1cc(CN[*:1])cc(Cc2ccc(O)cc2)c1)[*:2]; X1 = O=C(c1cc(Cc2ccc(O)cc2)cc(N[*:1])c1)[*:2]; Phe(4-NH2) = Nc1ccc(C[C@H](N)C(=O)O)cc1
What follows is a collection of Ki values obtained with Type-1 angiotensin II receptor B (Rattus norvegicus, UniProt P29089).

compound="CC[C@H](C)[C@H](NC(=O)[C@H](Cc1ccc(O)cc1)NC(=O)[C@@H](NC(=O)[C@H](CCCN=C(N)N)NC(=O)[C@@H](N)CC(=O)O)C(C)C)C(=O)N[C@@H](Cc1ccc(N)cc1)C(=O)N1CCC[C@H]1C(=O)N[C@@H](Cc1ccccc1)C(=O)O (H-DRVYI[Phe(4-NH2)]PF-OH)" tested_system="Type-1 angiotensin II receptor B (Rattus norvegicus, UniProt P29089)" experimental_result="> 10 µM"
compound="N=C(N)NCCC[C@H](NC(=O)[C@@H](N)CC(=O)O)C(=O)Nc1cc(Cc2ccc(O)cc2)cc(C(=O)N[C@@H](Cc2cnc[nH]2)C(=O)N2CCC[C@H]2C(=O)N[C@@H](Cc2ccccc2)C(=O)O)c1 (H-DR[X1]HPF-OH)" tested_system="Type-1 angiotensin II receptor B (Rattus norvegicus, UniProt P29089)" experimental_result="> 10 µM"
compound=CC[C@H](C)[C@H](NC(=O)[C@H](Cc1ccc(O)cc1)NC(=O)[C@@H](NC(=O)[C@H](CCCNC(=N)N)NC(=O)CNC)C(C)C)C(=O)N[C@@H](Cc1cnc[nH]1)C(=O)N1CCC[C@H]1C(=O)N[C@@H](Cc1ccccc1)C(=O)O tested_system="Type-1 angiotensin II receptor B (Rattus norvegicus, UniProt P29089)" experimental_result="0.00016 µM"
compound="CC(C)[C@H](NC(=O)[C@H](CCCN=C(N)N)NC(=O)[C@@H](N)CC(=O)O)C(=O)NCc1cc(Cc2ccc(O)cc2)cc(C(=O)N[C@@H](Cc2c[nH]cn2)C(=O)N2CCC[C@H]2C(=O)N[C@@H](Cc2ccccc2)C(=O)O)c1 (H-DRV[X2]HPF-OH)" tested_system="Type-1 angiotensin II receptor B (Rattus norvegicus, UniProt P29089)" experimental_result="> 10 µM"

As a next step, examine the compound that follows.
**Query** # get_value(readout='Ki', item= NC(N)=NCCC[C@H](NC(=O)[C@@H](N)CC(=O)O)C(=O)NCc1cc(Cc2ccc(O)cc2)cc(C(=O)N[C@@H](Cc2c[nH]cn2)C(=O)N2CCC[C@H]2C(=O)N[C@@H](Cc2ccccc2)C(=O)O)c1 (H-DR[X2]HPF-OH) )
**Result** > 10 µM
